Source listed as PubChem BioAssay AID2060882.

tested on: 898857-211-R-J1-PDC complex spheroids, growth % test/control; assay: Anticancer human tumor 898857-211-R-J1-PDC patient-derived melanoma cell line growth inhibition [RAS]; conditions: second compound 0.000949 µM; first compound 0.0316 µM; hits give low values
EXPERIMENTAL_READOUT: viability, T/C (%)
Numbers only, in %.

Recorded viability, T/C, per entry:
INSERT INTO results (molecule, value) VALUES
  ('Cc1nc(N2CCC3(CC2)COC(C)C3N)c(CO)nc1Sc1ccnc(N)c1Cl (centres undefined) + CCn1c(-c2cccnc2C(C)OC)c2c3cc(ccc31)N1CCOC(CC(NC(=O)C(C(C)C)N(C)C(=O)C3(F)CCN(C(=O)C#CC(C)(C)N(C)C)CC3)C(=O)N3CCCC(N3)C(=O)OCC(C)(C)C2)C1', 94.5),
  ('CCC(CC)c1cc(NC2CCC(N)C2)n2nccc2n1 (centres undefined) + CCn1c(-c2cc(N3CCN(C)CC3)cnc2C(C)OC)c2c3cc(ccc31)-c1csc(n1)CC(NC(=O)C1CC1C)C(=O)N1CCCC(N1)C(=O)OCC(C)(C)C2', 113),
  ('CC(=O)OC12COC1CC(O)C1(C)C(=O)C(O)C3=C(C)C(OC(=O)C(O)C(NC(=O)OC(C)(C)C)c4ccccc4)CC(O)(C(OC(=O)c4ccccc4)C21)C3(C)C (centres undefined) + CCn1c(-c2cccnc2C(C)OC)c2c3cc(ccc31)N1CCOC(CC(NC(=O)C(C(C)C)N(C)C(=O)C3(F)CCN(C(=O)C#CC(C)(C)N(C)C)CC3)C(=O)N3CCCC(N3)C(=O)OCC(C)(C)C2)C1', 10.8);

Switching to the query record.
Q: Give its viability, T/C value. Item: C[C@@H](NC(=O)c1ncnc(N)c1Cl)c1ncc(C(=O)Nc2cc(C(F)(F)F)c(Cl)cn2)s1 + CCn1c(-c2cc(N3CCN(C)CC3)cnc2C(C)OC)c2c3cc(ccc31)-c1csc(n1)CC(NC(=O)C1CC1C)C(=O)N1CCCC(N1)C(=O)OCC(C)(C)C2
A: 131

* * *

test system: 898857-211-R-J1-PDC complex spheroids, growth % test/control; assay: Anticancer human tumor 898857-211-R-J1-PDC cell line growth inhibition [RAS]; settings: second compound 0.1 µM; first compound 0.0316 µM; hits give low values;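 further: spheroids exposed to compound for seven days before readout; 100% = DMSO vehicle control wells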
EXPERIMENTAL_READOUT: viability, T/C (%)
Answers are plain numbers, in %.

Recorded viability, T/C, per entry:
INSERT INTO measurements (compound, value) VALUES
  ('CCC(CC)c1cc(NC2CCC(N)C2)n2nccc2n1 (stereo not given) + C=CC(=O)N1CCN(c2nc(OCC3CCCN3C)nc3c(F)c(-c4nc(N)cc(C)c4C(F)(F)F)c(Cl)cc23)C(C)C1', 95.5),
  ('CC(C)n1nc(-c2ccc3oc(N)nc3c2)c2c(N)ncnc21 + C#Cc1c(F)ccc2cc(O)cc(-c3ncc4c(N5CC6CCC(C5)N6)nc(OCC56CCCN5CC(F)C6)nc4c3F)c12', 54.4),
  ('CCC(CC)c1cc(NC2CCC(N)C2)n2nccc2n1 (stereo not given) + C#Cc1c(F)ccc2cc(O)cc(-c3ncc4c(N5CC6CCC(C5)N6)nc(OCC56CCCN5CC(F)C6)nc4c3F)c12', 119),
  ('CC(C)NCC(C(=O)N1CCN(c2ncnc3c2C(C)CC3O)CC1)c1ccc(Cl)cc1 (stereo not given) + C=CC(=O)N1CCN(c2nc(OCC3CCCN3C)nc3c(F)c(-c4nc(N)cc(C)c4C(F)(F)F)c(Cl)cc23)C(C)C1', 118),
  ('CCN1CCN(Cc2ccc(Nc3ncc(F)c(-c4cc(F)c5nc(C)n(C(C)C)c5c4)n3)nc2)CC1 + C=CC(=O)N1CCN(c2nc(OCC3CCCN3C)nc3c(F)c(-c4nc(N)cc(C)c4C(F)(F)F)c(Cl)cc23)C(C)C1', 98.2);

Your task in this section: give viability, T/C for each listed record.
1. CC(=O)OC12COC1CC(O)C1(C)C(=O)C(O)C3=C(C)C(OC(=O)C(O)C(NC(=O)OC(C)(C)C)c4ccccc4)CC(O)(C(OC(=O)c4ccccc4)C21)C3(C)C (stereo not given) + C#Cc1c(F)ccc2cc(O)cc(-c3ncc4c(N5CC6CCC(C5)N6)nc(OCC56CCCN5CC(F)C6)nc4c3F)c12
2. O=C(c1ccc(F)c(F)c1Nc1ccc(I)cc1F)N1CC(O)([C@@H]2CCCCN2)C1 + C#Cc1c(F)ccc2cc(O)cc(-c3ncc4c(N5CC6CCC(C5)N6)nc(OCC56CCCN5CC(F)C6)nc4c3F)c12
3. C[C@@H](NC(=O)c1ncnc(N)c1Cl)c1ncc(C(=O)Nc2cc(C(F)(F)F)c(Cl)cn2)s1 + C#Cc1c(F)ccc2cc(O)cc(-c3ncc4c(N5CC6CCC(C5)N6)nc(OCC56CCCN5CC(F)C6)nc4c3F)c12
4. CCN1CCN(Cc2ccc(Nc3ncc(F)c(-c4cc(F)c5nc(C)n(C(C)C)c5c4)n3)nc2)CC1 + C#Cc1c(F)ccc2cc(O)cc(-c3ncc4c(N5CC6CCC(C5)N6)nc(OCC56CCCN5CC(F)C6)nc4c3F)c12
5. C=CC(=O)Nc1cc(Nc2nccc(-c3cn(C)c4ccccc34)n2)c(OC)cc1N(C)CCN(C)C + C=CC(=O)N1CCN(c2nc(OCC3CCCN3C)nc3c(F)c(-c4nc(N)cc(C)c4C(F)(F)F)c(Cl)cc23)C(C)C1

A:
[13, 27.1, 124, 96.6, 117]
